Give measured target (unweighted spectral count of the protein in the RNP capture) for each item. Keep answers brief.
Test system: SARS-CoV-2 gRNA
Type: binding
Settings: […]; LC-MS/MS; Probe I sample (first 199 lines of Table 2)

Enquiry: Recorded target (unweighted spectral count of the protein in the RNP capture) of TRA2B: host protein, UniProt P62995 (protein, UniProt P62995 2-288, looked up) Transformer-2 protein homolog …: SDSGEQNYGERESRSASRSGSAHGSGKSARHTPARSRSKEDSRRSRSKSRSRSESRSRSRRSSRRHYTRSRSRSRSHRRSRSRSYSRDYRRRHSHSHSPMSTRRRHVGNRANPDPNCCLGVFGLSLYTTERDLREVFSKYGPIADVSIVYDQQSRRSRGFAFVYFENVDDAKEAKERANGMELDGRRIRVDFSITKRPHTPTPGIYMGRPTYGSSRRRDYYDRGYDRGYDDRDYYSRSYRGGGGGGGGWRAAQDRDQIYRRRSPSPYYSRGGYRSRSRSRSYSPRRY , please.
Return: 13

Enquiry: Recorded target (unweighted spectral count of the protein in the RNP capture) of RBMX (protein, UniProt P38159 1-391, looked up) RNA-binding motif protein, X …: MVEADRPGKLFIGGLNTETNEKALEAVFGKYGRIVEVLLMKDRETNKSRGFAFVTFESPADAKDAARDMNGKSLDGKAIKVEQATKPSFESGRRGPPPPPRSRGPPRGLRGGRGGSGGTRGPPSRGGHMDDGGYSMNFNMSSSRGPLPVKRGPPPRSGGPPPKRSAPSGPVRSSSGMGGRAPVSRGRDSYGGPPRREPLPSRRDVYLSPRDDGYSTKDSYSSRDYPSSRDTRDYAPPPRDYTYRDYGHSSSRDDYPSRGYSDRDGYGRDRDYSDHPSGGSYRDSYESYGNSRSAPPTRGPPPSYGGSSRYDDYSSSRDGYGGSRDSYSSSRSDLYSSGRDRVGRQERGLPPSMERGYPPPRDSYSSSSRGAPRGGGRGGSRSDRGGGRSRY , please.
Return: 6
